assay: Serum HyT13 determination (bio-reporter assay); type: in vivo; conditions: mouse, intraperitoneal, 25 mg/kg IP, Swiss Webster mice, 24 hours, read-out: blood serum concentration
Readout label: concentration at 24 h

QUERY: Form field: reported concentration at 24 h of `O=C(CC12CC3CC(CC(C3)C1)C2)NCCOCCOCCCCCCCl`
RESULT: ~500 nM
